Test system: Streptococcus agalactiae
Test: Antimicrobial activity against penicillin-resistant Streptococcus agalactiae B514 by agar dilution method
Format: functional
Binary call on MIC with cut-off 0.5 µg/mL: strictly below means MET, and equality or higher means NOT MET.

[
  {
    "chem_smiles": "CO/N=C(\\C(=O)N[C@@H]1C(=O)N2C(C(=O)O)=C(COC(C)=O)CS[C@H]12)c1csc(N)n1",
    "assigned_category": "MET"
  },
  {
    "chem_smiles": "Cc1nnc(SCC2=C(C(=O)O)N3C(=O)[C@@H](NC(=O)Cn4cnnn4)[C@H]3SC2)s1",
    "assigned_category": "NOT MET"
  },
  {
    "chem_smiles": "CC1(C)S[C@@H]2[C@H](NC(=O)Cc3ccccc3)C(=O)N2[C@H]1C(=O)O",
    "assigned_category": "MET"
  },
  {
    "chem_smiles": "CC1(C)S[C@@H]2[C@H](NC(=O)COc3ccccc3)C(=O)N2[C@H]1C(=O)O",
    "assigned_category": "MET"
  },
  {
    "chem_smiles": "Cc1onc(-c2ccccc2)c1C(=O)N[C@@H]1C(=O)N2[C@@H]1SC(C)(C)[C@@H]2C(=O)O",
    "assigned_category": "NOT MET"
  }
]

Query: Dear colleague, could you confirm whether MIC of "C[C@@H](O)[C@H]1C(=O)N2C(C(=O)O)=C(S[C@@H]3CN[C@H](C(=O)N(C)C)C3)[C@H](C)[C@H]12" falls below 0.5 µg/mL? Thanks.
Response: MET

Query: Dear colleague, could you confirm whether MIC of "CO/N=C(\C(=O)N[C@@H]1C(=O)N2C(C(=O)O)=CCS[C@H]12)c1csc(N)n1" falls below 0.5 µg/mL? Thanks.
Response: NOT MET

Where do these numbers come from? They come from ChEMBL document CHEMBL1275458.
